Molecular target: T1, human CTGF (antigen of the Biacore assays) (human, UniProt P29279 27-349, limits assumed)
T1 construct: also called human CTGF protein
T1 sequence: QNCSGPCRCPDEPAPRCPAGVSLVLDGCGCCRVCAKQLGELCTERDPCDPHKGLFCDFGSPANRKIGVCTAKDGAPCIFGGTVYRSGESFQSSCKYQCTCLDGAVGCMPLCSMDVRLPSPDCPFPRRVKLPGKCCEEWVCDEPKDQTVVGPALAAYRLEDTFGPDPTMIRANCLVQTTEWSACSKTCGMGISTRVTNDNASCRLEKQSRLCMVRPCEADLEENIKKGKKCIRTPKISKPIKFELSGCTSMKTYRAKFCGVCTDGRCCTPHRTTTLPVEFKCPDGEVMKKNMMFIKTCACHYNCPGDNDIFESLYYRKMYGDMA
Assay: SPR (Biacore T200), human CTGF on CM5 chip, antibody 150 ug/ml then 50 nM TGF-β1 as competitor
The following binders are listed with their measured Percent function blocking (%) values.
Lab book: enter the figure in %, no units written.

Given item CTGF antibody mAb1 (antibody, V domains shown, positive control, from CN1829740B; also called pamrevlumab; FG-3019) VH: EGQLVQSGGGLVHPGGSLRLSCAGSGFTFSSYGMHWVRQAPGKGLEWVSGIGTGGGTYSTDSVKGRFTISRDNAKNSLYLQMNSLRAEDMAVYYCARGDYYGSGSFFDCWGQGTLVTVSS VL: DIQMTQSPSSLSASVGDRVTITCRASQGISSWLAWYQQKPEKAPKSLIYAASSLQSGVPSRFSGSGSGTDFTLTISSLQPEDFATYYCQQYNSYPPTFGQGTKLEIKR , the value recorded as its Percent function blocking (%) is 41.3

Given item Hu147-33wk (antibody, human IgG1, kappa, V domains shown, humanized from mab147, Hu147-VH3/VL3; IgG1/kappa) VH: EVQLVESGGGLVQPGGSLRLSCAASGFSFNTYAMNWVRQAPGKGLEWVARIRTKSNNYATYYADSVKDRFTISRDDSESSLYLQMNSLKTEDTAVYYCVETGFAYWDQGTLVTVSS VL: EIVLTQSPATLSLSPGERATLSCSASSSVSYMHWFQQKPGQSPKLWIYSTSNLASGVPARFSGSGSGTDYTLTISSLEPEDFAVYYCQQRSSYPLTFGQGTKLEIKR , the value recorded as its Percent function blocking (%) is 57.3
